Please go through the items and note down their log10 IC50.
# Tested on: PqsR (PqsR-controlled pqsA promoter, PA14 mCTX::PpqsA-lux)
# experiment-notes: Bioluminescent reporter assay, PA14 mCTX::PpqsA-lux
# Format: cell-based
# applied-conditions: Pseudomonas aeruginosa, PA14, read-out: IC50 (μM) PA14 mCTX::PpqsA-lux
Plainly stated, the numbers are log10 of IC50 given in µM.

Lookup: Query (compound): CC(C)n1c(NCC(O)COc2ccc(CC#N)cc2)nc2ccccc21 (centres unmarked) [Compound 6p] ; field requested: log10 IC50
Found: 0.01

Lookup: Another compound to check: N#CCc1ccc(OCC(O)CNc2nc3ccc(Cl)cc3n2C2CCC2)cc1 (centres unmarked) [Compound 6j]
Found: -0.51

Lookup: Another compound to check: CC(C)(C)Cn1c(NCC(O)COc2ccc(CC#N)cc2)nc2ccc(Cl)cc21 (centres unmarked) [Compound 6h]
Found: -0.60

Lookup: Another compound to check: N#CCc1ccc(OCC(O)CNc2nc3ccc(Cl)cc3n2C2CCCC2)cc1 (centres unmarked) [Compound 6k]
Found: -0.33

Lookup: Another compound to check: COCCn1c(NCC(O)COc2ccc(CC#N)cc2)nc2ccc(Cl)cc21 (centres unmarked) [Compound 6t]
Found: -0.70

Lookup: Another compound to check: CC(C)n1c(NCC(O)COc2ccc(CC#N)cc2)nc2ccc(Cl)cc21 (centres unmarked) [Compound 6f]
Found: -1.05

Lookup: Another compound to check: N#CCc1ccc(OCC(O)CNc2nc3ccc(Cl)cc3n2C2CCCCC2)cc1 (centres unmarked) [Compound 6l]
Found: 0.15

Lookup: Another compound to check: N#CCc1ccc(OCC(O)CNc2nc3ccc(Cl)cc3n2C2CC2)cc1 (centres unmarked) [Compound 6i]
Found: -1.05
